Source listed as patent US8653122B2.

Test: Plasma levels of fipamezole in healthy male volunteers after a single 30 mg dose (oral, oromucosal tablet, oromucosal spray)
Format: in vivo, human
Conditions: human, plasma, other: oromucosal spray, oromucosal spray, median
MEASUREMENT_TYPE: Tmax
Show the value, then the unit it is measured in.

Qu. Returns the measured Tmax for the input compound. Input: CCC1(c2c[nH]cn2)Cc2ccc(F)cc2C1.Cl (stereo not shown)
Ans. 42 min

* * *

Test: Plasma levels of fipamezole in healthy male volunteers after a single 30 mg dose (oral, oromucosal tablet, oromucosal spray)
Assay type: in vivo, human
Conditions: human, plasma, oral (solution), mean
MEASUREMENT_TYPE: Cmax (ng/mL)
One number for each entry, in ng/mL.

Qu. Look up Cmax for this molecule: CCC1(c2c[nH]cn2)Cc2ccc(F)cc2C1.Cl (stereo not shown)
Ans. 1.59

* * *

Experiment: Plasma levels of fipamezole in healthy male volunteers after a single 30 mg dose (oral, oromucosal tablet, oromucosal spray)
Format: in vivo, human
Conditions: human, plasma, oral (solution), mean
MEASUREMENT_TYPE: AUC(0-inf) (ng·h/mL)
Give bare numbers, in ng·h/mL.

Qu. Would you kindly share the measured AUC(0-inf) for CCC1(c2c[nH]cn2)Cc2ccc(F)cc2C1.Cl (stereo not shown) [fipamezole] ?
Ans. 7.65

* * *

Experiment: Plasma levels of fipamezole in healthy male volunteers after a single 30 mg dose (oral, oromucosal tablet, oromucosal spray)
Assay type: in vivo, human
Details: human, plasma, other: oromucosal tablet, oromucosal tablet
MEASUREMENT_TYPE: Tmax (min)
One number for each entry, in min.

Qu. Can you share its Tmax? I mean this compound: CCC1(c2c[nH]cn2)Cc2ccc(F)cc2C1.Cl (stereo not shown) [fipamezole]
Ans. 51

* * *

Test: Plasma levels of fipamezole in healthy male volunteers after a single 30 mg dose (oral, oromucosal tablet, oromucosal spray)
Type: in vivo, human
Details: human, plasma, other: oromucosal tablet, oromucosal tablet, mean
MEASUREMENT_TYPE: AUC(0-inf)
The reply must contain the numeric value and, after it, the unit.

Qu. Field request: AUC(0-inf) | item: CCC1(c2c[nH]cn2)Cc2ccc(F)cc2C1.Cl (stereo not shown)
Ans. 116 ng·h/mL

* * *

Test: Plasma levels of fipamezole in healthy male volunteers after a single 30 mg dose (oral, oromucosal tablet, oromucosal spray)
Assay type: in vivo, human
Conditions: human, plasma, oral (solution), median
MEASUREMENT_TYPE: Tmax
Please answer in the form of a number followed by its unit of measurement.

Qu. # get_value(readout='Tmax', item= CCC1(c2c[nH]cn2)Cc2ccc(F)cc2C1.Cl (stereo not shown) [fipamezole] )
Ans. 1 h
